- Tested on: HeLa
- METHOD: Reduction in mitochondrial ATP content in human HeLa cells expressing mitochondrially targeted Photinus pyralis luciferase at 1 uM in presence of 100 um histamine by luciferin-luciferase assay
- Assay type: ADME, cell-based

>  <MOL>
O=C1NCN(c2cccc(C(F)(F)F)c2)C12CCN(Cc1ccccc1)CC2

>  <Activity>
Non-Toxic

$$$$
>  <MOL>
O=C1NCN(c2ccccc2)C12CCN(S(=O)(=O)c1ccc(Cl)s1)CC2

>  <Activity>
Non-Toxic

$$$$
>  <MOL>
O=C1N=CN(c2ccc(Cl)cc2)C12CCN(Cc1ccccc1)CC2

>  <Activity>
Non-Toxic

$$$$
>  <MOL>
Cc1ccc(S(=O)(=O)N2CCC3(CC2)C(=O)NCN3c2ccccc2)cc1

>  <Activity>
Toxic

$$$$

Ref: ChEMBL document CHEMBL4152345
